- Tested on: HT29 colon
- ASSAY_COMMENT: NCI-60 one-dose screen, 48 h (100 = growth as untreated, 0 = no growth, -100 = all killed)
- RUN_PARAMETERS: 10 µM unless noted
This is part of a sample that, as a whole, favours compounds with a hit. Of some 83,000 tested, about 20% had one in any assay.
OBSERVED_PROPERTY: growth (%)
API: value field is a number in %; no unit string.

Data request: If you can, please state the reported growth value of `Cn1c2c(c3ccc(Cl)cc31)-n1cccc1C2=O` .
Data returned: 70.8

Data request: If you can, please state the reported growth value of `COC(=O)[C@]12CC[C@@H](C(/C=C/c3cccnc3)=N/O)[C@@H]1[C@H]1CC[C@@H]3[C@@]4(C)CC(=C/c5cccnc5)/C(=N/O)C(C)(C)[C@@H]4CC[C@@]3(C)[C@]1(C)CC2` .
Data returned: 32.8

Data request: If you can, please state the reported growth value of `O=S(=O)(NCCNc1cc(-c2cn(-c3ccccc3)nc2-c2cccc(O)c2)ccn1)c1ccc(F)cc1` .
Data returned: 1.75

Data request: If you can, please state the reported growth value of `Cn1cc(-c2nc(-c3cn(C)c4ncccc34)cs2)c2ccccc21` .
Data returned: 9.24

Data request: If you can, please state the reported growth value of `Cc1csc(Nc2nc(-c3cccc(Br)c3)nc(C(Cl)(Cl)Cl)n2)n1` .
Data returned: 18.9

Data request: If you can, please state the reported growth value of `COc1ccc(-c2n/c(=C\c3c(O)[nH]c4ccc(OC)cc34)cc3c2=Nc2ccccc2-3)cc1` .
Data returned: -47.4

Data request: If you can, please state the reported growth value of `COc1cc(/C=C/c2cc(/C=C/c3ccc(O)c(OC)c3)n(-c3ccccc3)c(=O)n2)ccc1O` .
Data returned: -13

Data request: If you can, please state the reported growth value of `C=C1C(=O)O[C@H]2[C@H]1CC/C(COC(=O)NCc1cc3ccccc3[nH]1)=C\CC[C@@]1(C)O[C@@H]21` .
Data returned: -42.6

Data request: If you can, please state the reported growth value of `O=C1c2cccc3cccc(c23)C(=O)N1CC#Cc1ccc2c3c(cccc13)C(=O)N(CCN1CCNCC1)C2=O` .
Data returned: 23.5

Data request: If you can, please state the reported growth value of `Cc1ccc(N(CC(=O)Nc2ccc(S(=O)(=O)N3CCC(N4CCCC4)CC3)cc2)S(=O)(=O)c2ccc(Cl)cc2)cc1` .
Data returned: -16.9

Data request: If you can, please state the reported growth value of `COC(=O)[C@]12CC[C@@H](C)[C@H](C)[C@@H]1C1=CC(=O)[C@@H]3[C@@]4(C)C[C@@H](O)[C@H](O)[C@@]5(C)COC(=C45)C[C@@]3(C)[C@]1(C)CC2` .
Data returned: 27.4

Data request: If you can, please state the reported growth value of `COC(=O)[C@]12CC[C@@H](C)[C@H](C)[C@@H]1C1=CC[C@@H]3[C@@]4(C)C[C@@H](OC(C)=O)[C@H](O)[C@@](C)(CO)[C@@H]4[C@H](O)C[C@@]3(C)[C@]1(C)CC2` .
Data returned: -95.4

Data request: If you can, please state the reported growth value of `Cc1ccc2c(c1)c1nc3cc(C)c(C)cc3nc1n2CCN(C)C` .
Data returned: 19

Data request: If you can, please state the reported growth value of `COc1ccc(-c2cc(-c3c(C)oc4cc5occc5c(OC)c4c3=O)nc(N)c2C#N)cc1OC` .
Data returned: 67

Data request: If you can, please state the reported growth value of `O=c1c2sc3ncc(Br)cc3c2ncn1-c1cccc(Cl)c1` .
Data returned: 71.5

Data request: If you can, please state the reported growth value of `O=C1C(=O)c2ccccc2C(O)=C1CCCc1ccc(C2CCCCC2)cc1` .
Data returned: 41.8
